Assay: Circular dichroism (CD) analysis of alpha-helicity
Type: physicochemical
Conditions: difference 50% TFE minus benign
Bridge positions count the residues as written; N and C are the ends. Square brackets hold non-standard residues; d marks the D form. Peptide text beside a SMILES is read from it. R8 = C=CCCCCCC[C@@](C)(N)C(=O)O; S5 = C=CCCC[C@](C)(N)C(=O)O
experimental-endpoint: Molar Ellipticity TFE-Molar Ellipticity Benign (deg cm^2 dmol^−1)
Give your result in deg cm^2 dmol^−1 as a bare value.

Just so you know, measured Molar Ellipticity TFE-Molar Ellipticity Benign for CC(=O)N[C@@H](CC(C)C)C(=O)N[C@H](C(=O)N[C@@H](Cc1ccccc1)C(=O)N[C@]1(C)CCCCCCC=CCCC[C@@](C)(C(=O)N[C@@H](CO)C(=O)N[C@@H](C)C(=O)N[C@@H](Cc2ccccc2)C(N)=O)NC(=O)[C@H](CC(C)C)NC(=O)[C@H](CCC(N)=O)NC(=O)[C@H](C)NC(=O)[C@H](Cc2c[nH]c3ccccc23)NC(=O)[C@H](Cc2ccc(O)cc2)NC(=O)[C@H](C)NC1=O)[C@@H](C)O [compound 7] (Ac-LTF[R8]AYWAQL[S5]SAF-NH2; staple 4-11) came out at −20045.4
